target: CLR/RAMP1 receptor (UniProt Q16602 23-461; O60894 27-148, limits assumed); assay: cell-based or functional assay
Sequence (Q16602 23-461 limits assumed, chain 1 of 2): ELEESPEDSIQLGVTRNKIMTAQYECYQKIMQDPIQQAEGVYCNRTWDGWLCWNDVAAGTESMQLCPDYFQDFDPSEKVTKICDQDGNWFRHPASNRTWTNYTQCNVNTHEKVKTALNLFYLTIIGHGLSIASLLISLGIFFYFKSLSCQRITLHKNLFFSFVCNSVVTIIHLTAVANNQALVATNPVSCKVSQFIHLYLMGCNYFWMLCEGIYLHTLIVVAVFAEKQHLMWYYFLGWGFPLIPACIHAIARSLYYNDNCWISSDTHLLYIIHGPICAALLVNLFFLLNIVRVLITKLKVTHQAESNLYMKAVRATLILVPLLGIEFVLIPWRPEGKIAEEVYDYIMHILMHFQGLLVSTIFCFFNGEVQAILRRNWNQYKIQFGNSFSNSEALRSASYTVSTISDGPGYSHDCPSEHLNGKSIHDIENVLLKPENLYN
Sequence (O60894 27-148 limits assumed, chain 2 of 2): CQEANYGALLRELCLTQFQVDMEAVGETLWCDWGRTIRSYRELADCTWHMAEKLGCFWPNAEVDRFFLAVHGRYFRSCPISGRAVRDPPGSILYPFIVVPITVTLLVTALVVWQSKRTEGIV
*: point of attachment. Palmitoyl = CCCCCCCCCCCCCCCC(=O)*
Threshold 6 nM. IC50 (nM), CGRP-stimulated CLR/RAMP1 cAMP assay below it: Condition met. IC50 (nM), CGRP-stimulated CLR/RAMP1 cAMP assay at it or above: Condition not met.

Ac-TVQKLAHQIYQFTDKDKDNSAPVDPSSPHSY-NH2 [SEQ ID NO: 76] :: Condition not met
Palmitoyl-KVQKLAHQISAPVDPSSPHSY-NH2 [SEQ ID NO: 123] :: Condition met
Palmitoyl-KVQKLAHQIYQFTDKDSAPVDPSSPHSY-NH2 [SEQ ID NO: 121] :: Condition met
Palmitoyl-KVQNLSHRLWQLMGPAGSAPVDPSSPHSY-NH2 [SEQ ID NO: 120] :: Condition met
Palmitoyl-TVQKLAHQIYQFTDKDKDNSAPVDPSSPHSY-NH2 [SEQ ID NO: 77] :: Condition not met

With those in mind, consider the next binder.
Request: Is IC50 (nM), CGRP-stimulated CLR/RAMP1 cAMP assay of Ac-VTHRLAGLLSRFTDKDKDNVAPRSKISPQGY-NH2 [SEQ ID NO: 115] strictly below 6 nM?
Result: Condition not met
